Where these numbers come from: patent US20240067639A1

Target: Biotin-labeled RNA (target RNA)
Test: BLI affinity measurement (ForteBio Octet RED384)
Conditions: Table G
Readout Kind: Kd (nM)

Take a look at these entries with their results.
Molecule | Kd / nM
CCN[C@@H](C)COc1ccc2c(c1)c1cc3cnccc3c(C)c1n2C [Compound 275] | 62
Cc1c2ccncc2cc2c3cc(Oc4cccnc4)ccc3n(C)c12 [Compound 311] | 2300

P = Cc1c2ccncc2cc2c3cc(C(=O)N[C@@H](C)C(N)=O)ccc3n(C)c12 [Compound 297]
Q = Cc1c2ccnc(C(=O)N[C@H](C)CN(C)C)c2cc2c3cc(OCC(N)=O)ccc3n(C)c12 [Compound 270]
Hi, I'm comparing two records. Which one has the lower Kd, P or Q ? Response format: the label of the selected entry.
Q
(Q: 510 nM, P: 2700 nM)
